# experimentDescription: in vivo
# assayContext: male, Sprague-Dawley, rat, po, 30 mg/kg
resultType: Tmax (h)
Report the figure in h without appending any unit label.

-- ask Indicate the recorded Tmax value for this molecule: COC(=O)[C@H](c1ccccc1Cl)N1CCc2sccc2C1 [Clopidogrel Bisulfate, clopidogrel bisulfate]
-- reply 4.1

Source listed as patent US20140121178A1.
